Experiment: yeast display, Sf9 membrane polyspecificity reagent, FACS + sequencing; frameworks hold sequencing errors
readoutKind: polyreactivity (PSR sort gate)

INSERT INTO results (residuesequence, valueobserved) VALUES
  ('QVQLVESGGGLVQAGGSLRLSCAASGITFFEYAMGWYRQAPGKERELVAVITSGGSTNYADSVKGRFTISRDNAKNTVYLQMNSLKPEDTAVYYCNARVVKYRWWYDYYYWGQGTQVTVSS', 'low polyreactivity'),
  ('QVQLVESGGGLVQAGGSLRLSCAASGYILTHYAMGWYRQAPGKERELVAAITRVGNTNYADSVKGRFTISRDNAKNTVYLQMNSLKPEDTAVYYCAVTYNGDSSWPGDYWGQGTQVTVSS', 'low polyreactivity');

====

Experiment: yeast display, Sf9 membrane polyspecificity reagent, FACS + sequencing; frameworks hold sequencing errors
readoutKind: polyreactivity (PSR sort gate)

INSERT INTO assay_data (residuesequence, valueobserved) VALUES
  ('QVQLVESGGGLVQAGGSLRLSCACSGHTFSSYAIGWYRQAPGKERELVAAISVSATRTYYADSVKGRFTISRDNEKNTVYLQMNSLKPEDTAVYYFAARPVQFTYGYWGLGTQVTVSS', 'high polyreactivity'),
  ('QVQLVESRGGLVQAGGSLRLSCAASGRIFNAYAMGWYRQAPGKERELVAAITVSGTRTYYADSVKGRFTISRDNAKNTVYLQMNSLKPEDTAVYYCAAEVVNYWYSYDYWGQGTQVTVSS', 'high polyreactivity'),
  ('QVQLVESGGGLVQAGGSLRLSCAASGSIFRVYAMGWYRQAPGKERELVARISRGGRTNYADSVKGRFTISRDNAKNTVYLQMNSLKPEDTSVYYCAADVVSLESYSYQSLGYDSWGQGTQVNVSS', 'high polyreactivity'),
  ('QVQLVESGGGIVQAGGSLRLSCASSGLIFKFYAMGWYRQAPGKERELVASIRRSGDNTYYADSVKRRFTISRDNAKNTVYLQMKSLKPEDTAVYYCAAELLYDYVEYYYWGQGTQVTVAS', 'high polyreactivity'),
  ('QVQLVESGGGLVKAGVSLRLICAASGSTFDGNDMGWYRQAHGKERELVATINSDDSKNYADSVKGRFTISRDNAKNTVYLQMNSLKPEDTAVYYCAARLYVTPILSYVERYTNDYWGQGTQVTVSS', 'low polyreactivity'),
  ('QVQLVESGGGLVQAGGSLRLSCAASGSIFYPNAMGWYRQAPGKEREFVAAISKSGGNTYYADSVKGRFTISRDNAKNTVYLQMNSLKPEDTAVYYCAARTQAFSRKGYGYWGQGTQVTVSS', 'high polyreactivity'),
  ('QVQLVESRGGLVQAGGSLRLSCAASGRTIINYAMGCYRQAPRKERELVAAITTGGRTNYADSVKGRFTISRDNAQNTVYLQMNSMKPEDTAVYYCNAVRYYRYYYWGQGTQVTVSS', 'low polyreactivity'),
  ('QVQLVESGGGLVQAGGSLRLSCAASGGTFRAYVMGWYRQAPGKERELVAAISRSGTRTYYADSVKGRFTISRDNAKNTVYLQMNSLKPEDTAVYYCAAAAKSWLFDYWGQGTQVTVSS', 'high polyreactivity'),
  ('QVQLVETGGGLVQAGGSLRLSCAASVRIFFVYAMGWYRQAPGKERELVAAITYDDGDTFYADSVKGRFTISRDNAKNTVYLQMNSLKPEDTAVYYCAAEGYSYIQSDLDYWGQGTQVTVSS', 'high polyreactivity'),
  ('QVRLVESGGGLVQAGGSLRLSCAASGSILYRYTMGWYRQAPGKETELVAAITWSDGSTYYSDSVKGRFTISRDNAKNTVYLQKNSLKPEDTAVYDCAADLWLDVDHEWSGGDYWGQGTQVTVSS', 'low polyreactivity'),
  ('QVHLVESGGGLVQAGGSLLISCSASGSTFGTNAMGWYRQAPGKERDLVASITWSGGNTNYADSVKGRFTISRDNAKNTVYLQKKSMKPADTAVYYCAAEVFISYGVGGYYSDMDYWGQVTQVTVSS', 'low polyreactivity');

Sourced from the nanobody polyreactivity screen of Harvey et al. (2022)
